# Test system: Hs578T complex spheroid growth, percent test/control
# protocol-notes: Anticancer human tumor Hs578T cell line growth inhibition [AhR];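 also: luminescent viability signal as a proxy for spheroid growth; spheroids exposed to agents for one week after three days of growth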
# test-parameters: second compound 0.316 µM; first compound 10 µM; active compounds read low
Assignment: determine reported viability, T/C for the given compounds.
Record the value in %, omitting the unit from your answer.

input: Record request: viability, T/C value, item COc1cc(Nc2ncc3c(n2)-c2ccc(Cl)cc2C(c2c(F)cccc2OC)=NC3)ccc1C(=O)O + CC(CO)NC(=O)c1cc(-c2ccc(Cl)cc2)nn(-c2cnn(C)c2)c1=O
output: 51.8

input: Record request: viability, T/C value, item Nc1ccccc1NC(=O)c1ccc(CNC(=O)OCc2cccnc2)cc1 + CC(CO)NC(=O)c1cc(-c2ccc(Cl)cc2)nn(-c2cnn(C)c2)c1=O
output: 1.83

input: Record request: viability, T/C value, item CC(C)c1c(-c2ccccc2)nc2c(C#N)c[nH]n2c1=O + Cc1cncc(-c2nc(NCCc3c[nH]c4ccccc34)c3ncn(C(C)C)c3n2)c1
output: 107

input: Record request: viability, T/C value, item COc1cc(Nc2ncc3c(n2)-c2ccc(Cl)cc2C(c2c(F)cccc2OC)=NC3)ccc1C(=O)O + Cc1ccccc1N=Nc1ccc(NC(=O)c2ccnn2C)c(C)c1
output: 40.9

input: Record request: viability, T/C value, item COc1ccc([C@@H](O)c2cc(-c3ncnc4cc(N5CCOCC5)ccc34)c(F)cc2Cl)nn1 + CC(CO)NC(=O)c1cc(-c2ccc(Cl)cc2)nn(-c2cnn(C)c2)c1=O
output: 36.7

input: Record request: viability, T/C value, item CC1(C)CCC(CN2CCN(c3ccc(C(=O)NS(=O)(=O)c4ccc(NCC5CCOCC5)c([N+](=O)[O-])c4)c(Oc4cnc5[nH]ccc5c4)c3)CC2)=C(c2ccc(Cl)cc2)C1 + Cc1ccccc1N=Nc1ccc(NC(=O)c2ccnn2C)c(C)c1
output: 65.8

input: Record request: viability, T/C value, item O=C(c1cc(Cc2n[nH]c(=O)c3ccccc23)ccc1F)N1CCN(C(=O)C2CC2)CC1 + CC(CO)NC(=O)c1cc(-c2ccc(Cl)cc2)nn(-c2cnn(C)c2)c1=O
output: 89.7

input: Record request: viability, T/C value, item CC(C)c1c(-c2ccccc2)nc2c(C#N)c[nH]n2c1=O + Cc1ccccc1N=Nc1ccc(NC(=O)c2ccnn2C)c(C)c1
output: 104

input: Record request: viability, T/C value, item CC(C)c1c(-c2ccccc2)nc2c(C#N)c[nH]n2c1=O + CC(CO)NC(=O)c1cc(-c2ccc(Cl)cc2)nn(-c2cnn(C)c2)c1=O
output: 115

input: Record request: viability, T/C value, item NS(=O)(=O)OCC1CC(n2ccc3c(NC4CCc5ccccc54)ncnc32)CC1O (configuration not stated) + Cc1ccccc1N=Nc1ccc(NC(=O)c2ccnn2C)c(C)c1
output: 33.7

input: Record request: viability, T/C value, item COc1cccc2c1C(=O)c1c(O)c3c(c(O)c1C2=O)CC(O)(C(=O)CO)CC3OC1CC(N)C(O)C(C)O1 (configuration not stated) + CC(CO)NC(=O)c1cc(-c2ccc(Cl)cc2)nn(-c2cnn(C)c2)c1=O
output: 2.88

input: Record request: viability, T/C value, item O=C(C=Cc1cccc(S(=O)(=O)Nc2ccccc2)c1)NO + Cc1ccccc1N=Nc1ccc(NC(=O)c2ccnn2C)c(C)c1
output: 0.66
